target: hMOR (Homo sapiens); construct: host or cells: CHO-K1; experiment: cell-based; assay type: cell-based; details: EC50, combined with naloxone (20 nM)
quantity-name: EC50 (µM)
Answer in µM, number only, no unit symbol.

What is its EC50 for hMOR (Homo sapiens)? Entry: CCc1ccccc1Nc1nc(-c2sc(C)nc2C)cs1
4

###

target: hMOR (Homo sapiens); construct: host or cells: CHO-K1; assay: cell-based; format: cell-based; details: AUC of [Ca2+]i fluorescence; combined with naloxone; CHO-K1/MOR/Gα15 cells
quantity-name: AUC

Solved entries:
>>> measured_value("Cc1nc(C)c(-c2csc(Nc3ccc(N(C)C)cc3C)n2)s1")
"− (−: <5000)"
>>> measured_value("Cc1nc(C)c(-c2csc(Nc3ccccc3-n3cccc3)n2)s1")
"− (−: <5000)"
>>> measured_value("CCc1ccccc1Nc1nc(-c2ccc(C)cc2)cs1")
"− (−: <5000)"
>>> measured_value("CCc1ccccc1Nc1nc(-c2sc(N)nc2C)cs1")
"− (−: <5000)"

Could you tell me which AUC is on file for Cc1nc(C)c(-c2csc(Nc3cc(Cl)ccc3C)n2)s1 ?
− (−: <5000)

Dear colleague, I am looking for the recorded AUC of the following compound: Cc1nc(C)c(-c2csc(Nc3cc(Br)ccc3C)n2)s1
− (−: <5000)

# lookup: AUC of Cc1nc(C)c(-c2csc(Nc3ccccc3Oc3ccccc3)n2)s1
− (−: <5000)

###

Please go through the items and note down their EC50.
target: hMOR (Homo sapiens, UniProt P35372); construct: host or cells: CHO-K1; assay: cell-based; format: cell-based; details: EC50, combined with naloxone; CHO-K1/MOR/Gα15 cells
Sequence (P35372 whole entry): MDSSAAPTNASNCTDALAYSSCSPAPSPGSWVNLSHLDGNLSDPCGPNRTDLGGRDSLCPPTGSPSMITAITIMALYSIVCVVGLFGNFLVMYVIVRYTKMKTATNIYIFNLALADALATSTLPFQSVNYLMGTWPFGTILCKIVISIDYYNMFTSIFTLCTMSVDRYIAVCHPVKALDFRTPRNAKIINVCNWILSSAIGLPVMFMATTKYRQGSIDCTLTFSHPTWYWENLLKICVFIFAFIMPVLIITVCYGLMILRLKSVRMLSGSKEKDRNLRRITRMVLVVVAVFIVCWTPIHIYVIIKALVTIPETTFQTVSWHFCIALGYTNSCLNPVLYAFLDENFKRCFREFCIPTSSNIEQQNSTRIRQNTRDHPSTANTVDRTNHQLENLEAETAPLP

Notebook: pull reported EC50 for hMOR (Homo sapiens, UniProt P35372), entry Cc1ccc(Nc2nc(-c3sc(C)nc3C)cs2)c(C)c1 [Compound 29]
3 to 10 µM

Quick check: EC50 on hMOR (Homo sapiens, UniProt P35372), item CCc1nc(C)c(-c2csc(Nc3ccccc3CC)n2)s1 [Compound 95] ?
3 to 10 µM

EC50 of COc1cccc(Nc2nc(-c3sc(C)nc3C)cs2)c1C [Compound 85] on hMOR (Homo sapiens, UniProt P35372)?
3 to 10 µM

###

biological target: hMOR (Homo sapiens, UniProt P35372); construct: host or cells: CHO-K1; test: cell-based; assay type: cell-based; conditions: AUC of [Ca2+]i fluorescence; combined with naloxone; CHO-K1/MOR/Gα15 cells
quantity-name: AUC

>>> measured_value("Cc1nc(C)c(-c2csc(Nc3cc(F)ccc3C)n2)s1")
"− (−: <5000)"
>>> measured_value("Cc1nc(C)c(-c2csc(Nc3ccccc3O)n2)s1")
"+ (+: >5000)"
>>> measured_value("Cc1nc(C)c(-c2csc(Nc3c(C)cc(Cl)cc3C)n2)s1")
"− (−: <5000)"
>>> measured_value("COc1cc(C)c(Nc2nc(-c3sc(C)nc3C)cs2)cc1OC")
"− (−: <5000)"
>>> measured_value("Cc1nc(C)c(-c2csc(Nc3cccc(C(F)(F)F)c3C)n2)s1")
"− (−: <5000)"
>>> measured_value("CCc1ccccc1Nc1ncc(-c2oc(C)nc2C)o1")
"− (−: <5000)"
>>> measured_value("Cc1nc(C)c(-c2csc(Nc3ccccc3F)n2)s1")
"− (−: <5000)"
>>> measured_value("COc1cc(Nc2nc(-c3sc(C)nc3C)cs2)cc(OC)c1OC")
"− (−: <5000)"
>>> measured_value("Cc1nc(C)c(-c2csc(Nc3cccc(C)c3C)n2)s1")
"+ (+: >5000)"

# ---- query compound ----
Reported AUC, compound CCOC(=O)c1cc(-c2csc(Nc3ccccc3CC)n2)on1 : ____
− (−: <5000)

Reference source: patent US9827228B2
